# procedure-details: plasma concentration during oral administration in drinking water
# Type: in vivo
# assay-conditions: LDLr-null (LDLr−/−), mouse, orally in the drinking water at 25 mg/kg/day, limit of detection 1 μM
Non-standard residues stand in square brackets, D forms with d. Residues, ends and D or L forms follow the SMILES beside them.
observable: level at time molar

query: Quick one: level at time molar of CC(C)C[C@@H]1NC(=O)[C@@H](Cc2c[nH]c3ccccc23)NC(=O)[C@H](CCCNC(=N)N)NC(=O)[C@@H](CCC(=O)O)NC(=O)[C@H](CCC(N)=O)NC(=O)[C@@H](CCC(=O)O)NC(=O)[C@H](CCCNC(=N)N)NC(=O)[C@@H](Cc2c[nH]c3ccccc23)NC1=O [SEQ ID NO:1, c[wLwReQeR]] (cyclo([dW]L[dW]R[dE]Q[dE]R)) ?
result: < 1000 nM

Measured values drawn from patent US10092620B2 for this set.
